Test system: webbing clothes moth (Tineola bisselliella)
Assay: Biological test 14: persistence of treated filter paper in cardboard box, webbing clothes moth larvae
Assay type: in vivo
Set-up: key: -: no damage; +: slight damage; ++: heavy damage; +++: severe damage
Conditions: 36 mg on filter paper, After 2 weeks
PROPERTY_NAME: degree of damage

C=CCc1ccc(COC(=O)[C@@H]2[C@H](/C=C(\Cl)C(F)(F)F)C2(C)C)o1 (racemic) ... -
C#CCc1ccc(COC(=O)C2C(/C=C(\Cl)C(F)(F)F)C2(C)C)o1 (stereo not shown) [C, reference compound] ... +++
CCCc1ccc(COC(=O)[C@@H]2[C@H](/C=C(\Cl)C(F)(F)F)C2(C)C)o1 (racemic) ... -
Cc1ccc(COC(=O)[C@@H]2[C@H](/C=C(\Cl)C(F)(F)F)C2(C)C)o1 (racemic) ... -
